Experiment: protein stability index of a GFP-peptide fusion (yeast GPS) (PSI 1-4); higher = more stable; sorted into four equal gates, so the index is relative within each strain
Details: pdr5∆
Recorded protein stability index determines the group label, using low end: < 2; middle: ≥ 2 and < 3; high end: ≥ 3

Query :: Category of KLQKYGAAVRLTGSDRV [RPN7] , please.
Result :: high end

###

As shown below, each of these sequences has a reported protein stability index value.
Test: protein stability index of a GFP-peptide fusion (yeast GPS) (PSI 1-4); higher = more stable; sorted into four equal gates, so the index is relative within each strain
Conditions: san1∆
Would you mind answering with just the numeric figure?

Recorded results for 2 sequences are shown here.
VSQQPLSRGYTCPGLSL [ECM29]: 3.02
NQFLKIKKKRKELFEKT [SMC1]: 2.96

Query :: Looking for the measured protein stability index of MSDFVPIDAGLNEAPFP [MCD1] , can you help?
Result :: 2.92

Query :: Same lookup for VYAQQSTVQTPITASMA [PGD1] , please.
Result :: 1.51

Query :: Same for VMLRLLLVVIFKKTLRS [SRB4]
Result :: 1.25

###

// reported protein stability index for each item listed
Experiment: protein stability index of a GFP-peptide fusion (yeast GPS) (PSI 1-4); higher = more stable; sorted into four equal gates, so the index is relative within each strain
Details: san1∆
Respond numerically, and do not add a unit to the figure.

Guide cases for protein stability index, answers given:
IEKVDRENMICKIDFQK [RRI2]: 3.18
EDILYYSTCPSETDLND [SRB8]: 2.14
MAVGKNKRLSRGKKGLK [RPS1B]: 1.64

Query :: Find the recorded protein stability index belonging to EKRYDDKLLDFIRYDVK [CSN12] and report it.
Result :: 3.22

Query :: Now consider QVQGQQQAQSFVGKKNT [SSN3] and answer again.
Result :: 2.57

Query :: Now consider QVEYALESISHAGTAIG [PRE9] and answer again.
Result :: 2.4

Query :: Quick one: VNIPSFMVRLDSEKHID [RPS9A]
Result :: 2.48

Query :: Param item: LINLAKTRVGSVTAQVY [RPC82]
Result :: 1.16

Query :: Try EFKSIEIEMKNKLEKLN [SMC4] next.
Result :: 1.42

###

Experiment: protein stability index of a GFP-peptide fusion (yeast GPS) (PSI 1-4); higher = more stable; sorted into four equal gates, so the index is relative within each strain
Conditions: ubr1∆
experimental.endpoint: protein stability index
Reply with just the number.

Look over these answered cases.
DPLLSLYNFLHKYVLTL [RGR1]: 2.12
EEKEESNLAATKSMVKI [RPN11]: 3.35
LLIHRKGLTYLHLDYNF [PRP8]: 1.56
KVKHDSQPFIKFLNFRP [SSN2]: 2.63
IQRFFALHYLVPFIIAA [COB]: 1.09
DDLADDDFEEDEDEEDD [RPC31]: 3.46

Query :: # input sequence: IVKVFHGAFMDIIWLQR [RRP6] ; wanted: its protein stability index
Result :: 1.18

Query :: Lookup HALYLAPSGIRMHLAPA [SSN2]
Result :: 2.04

###

Test: protein stability index of a GFP-peptide fusion (yeast GPS) (PSI 1-4); higher = more stable; sorted into four equal gates, so the index is relative within each strain
Details: pdr5∆
experimental.endpoint: protein stability index
No unit in the answer, only the number.

AAELLDKRIVISIDSWP [DIS3]: 1.87
DTFLPPPPPPPSNFEIN [PRP8]: 2.57
IRQDVNLGRAVFWEIQS [PRP8]: 2.86
LSTSEDVSIEELLREWL [IRR1]: 2.31
LSQSRIKIKSLEYEISK [YIL149C/MLP2]: 2.68
ILLAGRFRGKRVVYLKH [RPL6A]: 2.17
FDSVIVENLTVAQECIA [SMC1]: 1.62
NSKPEKSSDSNDSNPSF [YLR335W/NUP2]: 2.62
PSPISHVAEIRSALEKG [RPB2]: 1.93

Query :: Bench note: what protein stability index did VRELFEMARTKKACIIF [RPT1] show?
Result :: 1.29
